target: JNK3 kinase (Homo sapiens, UniProt P53779)
Sequence (P53779 whole entry): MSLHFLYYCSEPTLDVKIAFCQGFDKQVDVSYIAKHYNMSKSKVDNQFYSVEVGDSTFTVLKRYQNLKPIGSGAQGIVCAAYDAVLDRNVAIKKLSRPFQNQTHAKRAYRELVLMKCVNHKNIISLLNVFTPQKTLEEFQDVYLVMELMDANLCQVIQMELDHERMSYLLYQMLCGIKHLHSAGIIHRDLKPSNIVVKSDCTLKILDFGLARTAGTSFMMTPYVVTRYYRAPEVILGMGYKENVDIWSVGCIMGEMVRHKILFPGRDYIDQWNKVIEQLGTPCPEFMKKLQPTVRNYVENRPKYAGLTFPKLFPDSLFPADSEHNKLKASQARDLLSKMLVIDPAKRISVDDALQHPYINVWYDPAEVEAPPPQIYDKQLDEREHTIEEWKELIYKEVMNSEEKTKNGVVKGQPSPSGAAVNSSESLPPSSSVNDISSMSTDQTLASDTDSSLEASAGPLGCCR

molecule: O=C(NNc1ccccc1)c1c[nH]c2ncc(-c3cccc(F)c3)cc12
targetDesc: JNK3 kinase (Homo sapiens, UniProt P53779)
unitSpec: µM
IC50: 0.78
